- Test system: SNB-78 CNS
- test: NCI tumour cell line growth inhibition, 48 h
attribute-measured: TGI

1) c1ccc2c(CN3CCC(C4CCN(Cc5cccc6ccccc56)CC4)CC3)cccc2c1
73.7 µM
2) CC1CC(=O)c2c(ccc3c2C(=O)c2cccc(O)c2C3=O)C1 (stereo not given)
45.7 µM
3) NC(=O)N/N=C(\CCC(=O)N(Cc1ccccc1)Cc1ccccc1)CC(=O)c1ccc(F)cc1
> 100 µM
4) COC1(Cc2ccccc2)C(=O)c2ccccc2N1C(C)=O (stereo not given)
> 100 µM
5) NC(=S)N/N=C/c1ccc(OC(=O)COc2ccccc2Cl)cn1
> 100 µM

---

- Test system: RPMI-8226 leukemia
- test: NCI tumour cell line growth inhibition, 48 h
Measured TGI by item
attribute-measured: TGI

1) O=C1/C(=C\c2ccccc2)c2ccccc2N1/N=C\c1ccccc1
> 100 µM
2) CCOC(=O)C1Oc2ccc([N+](=O)[O-])cc2C1(C)O (stereo unspecified)
> 100 µM
3) CC(=O)O/N=C/c1cc2c(cc1Br)OCO2
> 349 µM
4) CN(C)C(=S)SCC(N)=O
> 100 µM
5) COc1cc2nc(N3CCC[C@@H](NC4=CC(=O)c5ccccc5C4=O)C3)nc(N)c2cc1OC
5.58 µM
6) CCOC(=O)C(=O)Nc1cccc(C)c1C
> 100 µM
7) COC(=O)C1=C(O)C(C(=O)OC)[C@@]2(O)[C@@H](C(=O)OC)CC[C@@H]1[C@@H]2C(=O)OC (stereo partly specified)
97.3 µM
8) COc1ccc(/C=N\O[Si](C)(C)C(C)(C)C)cc1O[Si](C)(C)C(C)(C)C
39 µM
9) COC1(Cc2ccccc2)C(=O)c2ccccc2N1C(C)=O (stereo unspecified)
> 100 µM
10) CN(C)C(=O)Oc1ccc(C(=S)Nc2ccccc2)cc1Br
73.9 µM
11) CCCCCCC(=O)OC[n+]1cccc(-c2c(COC(=O)NC(C)C)c(COC(=O)NC(C)C)c3n2CCC3)c1
> 100 µM

---

- System: NCI-H522 lung
- test: NCI tumour cell line growth inhibition, 48 h
Where a SMILES comes first, the peptide text is derived from it.
attribute-measured: TGI

1. NC(=S)N/N=C/c1ccc(OC(=O)COc2ccccc2Cl)cn1
> 77.2 µM
2. COc1ccc2c(c1)C=C1CSCC3=Cc4cc(OC)ccc4OC13O2
0.937 µM
3. CN(CCO)/N=N/c1nc[nH]c1C(N)=O
> 100 µM
4. Nc1cc(N)c(N=Nc2cccc3c(S(=O)(=O)O)cccc23)cc1N=Nc1cc([N+](=O)[O-])ccc1O
61.4 µM
5. O=C(O)CN=c1c2ccccc2n(O)c2ccccc12
> 100 µM
6. COc1cc2c(Cc3cc(OCc4ccccc4)ccc3N)nccc2c(OC)c1OC
> 10 µM
7. CC(Cc1ccc2c(c1)OCO2)N(C)C(=O)C1=CCN(C)CC1 (centres undefined)
> 100 µM
8. CCOC(=O)/C(=N/Nc1ccc(Cl)cc1)N1C(=S)C=C(C)NN(C)C1=S
50.2 µM
9. OC1(c2ccc3ccccc3c2)c2c(c3ccccc3c3ccccc23)C2=NCCN21 (centres undefined)
24.8 µM
10. CC(=O)NC(CO)C(=O)NC(Cc1ccc(O)cc1)C(=O)NCC(N)=O (stereo not drawn) (Ac-Ser-Tyr-Gly-NH2; configuration not given here)
> 100 µM
11. Cc1ccc(N2C(=O)C(=O)N(/N=C3\C(=O)Nc4ccccc43)C2=S)cc1
> 100 µM
12. Cc1nc(Nc2nc3ccccc3[nH]2)[nH]c(=O)c1CCO
> 100 µM
13. COc1ccc(/C(C#N)=C(/N)SCc2ccccc2Cl)cc1
27.4 µM
14. CC1=NN(c2ccccc2)C(=O)C1N=Nc1ccc(S(N)(=O)=O)cc1 (centres undefined)
> 100 µM
15. CCOC(=O)C1Oc2ccc([N+](=O)[O-])cc2C1(C)O (centres undefined)
> 100 µM
16. Cc1nc2nn(C)cc2c(=O)n1/N=C/c1ccccc1
> 100 µM
17. COc1ccccc1N1C(=O)CC(=O)N(C(=O)CCCCCCCCC(=O)N2C(=O)CC(=O)N(c3ccccc3OC)C2=S)C1=S
> 100 µM
18. CNc1ncc2cc(Oc3ccc(F)cc3F)c(=O)n(C)c2n1
> 25 µM
19. Cc1ccc(-c2c3c(N)c4c(nc3nc3c2c(C)nn3-c2ccccc2)CCC4)cc1
40.3 µM
20. O=C(NN1C(=O)CSC12CCC(c1ccccc1)CC2)c1[nH]c2ccc(F)cc2c1-c1ccccc1 (centres undefined)
28.2 µM
21. Clc1ccc(/C=C/c2nc(Cl)c(-c3ccc(Cl)cc3)c(Cl)n2)cc1
> 100 µM
22. COC(=O)C1=NN2c3ccccc3CN([C@@H](C)c3ccccc3)C(=O)[C@H]2[C@@H]1C
> 100 µM
23. CC1(C)N=C(Oc2ccccc2)n2nccc2N1
> 100 µM
24. COC1C(O)C(C)OC(O[C@@H]2C[C@H]3CC[C@@H]4[C@H](CC[C@]5(C)[C@@H](C6=CC(=O)OC6)CC[C@]45O)[C@@]3(C)[C@H](O)C2)C1O (some centres undefined)
0.132 µM
